Biological target: Endothelin-1 receptor (Homo sapiens, UniProt P25101)
Experiment: Binding affinity against human cloned endothelin A receptor expressed in LTK-cells
measured-parameter: log10 of IC50 (log10 of the value in µM)
All values: base-10 log of IC50 in µM.

// below: answered molecules
molecule | log10 of IC50
COC(=O)c1ccc(CC2=C(c3ccc4c(c3)OCO4)C(=O)OC2(O)c2ccc(OC)cc2)cc1 (stereo not given) | -1.96
COC(=O)c1cccc(CC2=C(c3ccc4c(c3)OCO4)C(=O)OC2(O)c2ccc(OC)cc2)c1 (stereo not given) | -2.07
COc1ccc(C2(O)OC(=O)C(c3ccc4c(c3)OCO4)=C2Cc2ccc3ccccc3c2)cc1 (stereo not given) | -1.85
COc1ccc(C2(O)OC(=O)C(c3ccc4c(c3)OCO4)=C2Cc2cc(OC)c(OC)cc2OC)cc1 (stereo not given) | -2.74
COc1ccc(C2(O)OC(=O)C(c3ccc4c(c3)OCO4)=C2Cc2cc(OC)c(OC)c(OC)c2)cc1C (stereo not given) | -3.30
O=C1OC(O)(c2ccc3c(c2)OCO3)C(Cc2ccccc2)=C1c1ccc2c(c1)OCO2 (stereo not given) | -1.72
COc1ccc(C2(O)OC(=O)C(c3ccc4c(c3)OCO4)=C2Cc2cccnc2)cc1 (stereo not given) | -1.40
COc1ccc(C2(O)OC(=O)C(c3ccc4c(c3)OCO4)=C2Cc2cccc([N+](=O)[O-])c2)cc1 (stereo not given) | -1.15

Batch request: log10 of IC50 for each of the following molecules.
1. COc1ccc(C2(O)OC(=O)C(c3ccc4c(c3)OCO4)=C2Cc2cc(OC)cc(OC)c2)cc1 (stereo not given)
2. COc1ccc(C2(O)OC(=O)C(c3cccc(OC)c3)=C2Cc2ccccc2)cc1 (stereo not given)
3. COc1ccc(C2(O)OC(=O)C(c3cc(OC)cc(OC)c3)=C2Cc2ccccc2)cc1 (stereo not given)
4. CCOc1cc(CC2=C(c3ccc4c(c3)OCO4)C(=O)OC2(O)c2ccc(OC)cc2)cc(OCC)c1OCC (stereo not given)
5. COc1ccc(C2(O)OC(=O)C(c3ccc4c(c3)OCO4)=C2Cc2ccc(-c3ccccc3)cc2)cc1 (stereo not given)
6. CCc1ccc(C2(O)OC(=O)C(c3ccc4c(c3)OCO4)=C2Cc2ccccc2)cc1 (stereo not given)

Response:
-2.77
-1.05
-1.34
-3.92
-0.70
-0.20

====

Target: UniProt P24530
Sequence (P24530 whole entry): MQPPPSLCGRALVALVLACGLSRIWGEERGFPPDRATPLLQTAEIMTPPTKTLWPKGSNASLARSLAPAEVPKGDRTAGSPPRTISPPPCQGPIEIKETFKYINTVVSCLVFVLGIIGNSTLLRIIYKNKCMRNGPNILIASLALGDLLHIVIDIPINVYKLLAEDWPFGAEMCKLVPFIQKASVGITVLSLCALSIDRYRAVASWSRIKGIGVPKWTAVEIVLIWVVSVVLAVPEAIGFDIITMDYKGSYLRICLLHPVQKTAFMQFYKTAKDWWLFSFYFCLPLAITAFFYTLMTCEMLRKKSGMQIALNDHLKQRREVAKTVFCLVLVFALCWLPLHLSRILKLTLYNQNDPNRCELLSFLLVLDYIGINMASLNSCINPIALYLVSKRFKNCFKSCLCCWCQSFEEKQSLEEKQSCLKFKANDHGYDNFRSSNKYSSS
Test: Binding affinity against human cloned Endothelin B receptor expressed in CHO-K1 cells
Type: cell-based
For each record, write down the corresponding log10 IC50.
All values: base-10 log of IC50 in nM.

// below: answered molecules
molecule | log10 IC50
COc1ccc(C2(O)OC(=O)C(c3ccc4c(c3)OCO4)=C2Cc2cccc(OC)c2)cc1 (configuration not stated) | 2.41
COc1ccc(C2(O)OC(=O)C(c3ccc4c(c3)OCO4)=C2Cc2cc(OC)c3c(c2)OCO3)cc1 (configuration not stated) | 4.20
COc1ccc(C2(O)OC(=O)C(c3cc(OC)c4c(c3)OCO4)=C2Cc2ccccc2)cc1 (configuration not stated) | 2.81
COc1ccc(C2(O)OC(=O)C(c3ccc4c(c3)OCO4)=C2Cc2nccc3ccccc23)cc1 (configuration not stated) | 3.51
COc1ccc(C2(O)OC(=O)C(c3cc(OC)cc(OC)c3)=C2Cc2ccccc2)cc1 (configuration not stated) | 3.72
COc1ccc(C2(O)OC(=O)C(c3ccc4c(c3)OCO4)=C2Cc2ccc(S(C)(=O)=O)cc2)cc1 (configuration not stated) | 3.48

Batch request: log10 IC50 for each of the following molecules.
1. COc1ccc(C2(O)OC(=O)C(c3ccc4c(c3)OCO4)=C2Cc2ccc3c(c2)OCCO3)cc1 (configuration not stated)
2. CCOc1cc(CC2=C(c3ccc4c(c3)OCO4)C(=O)OC2(O)c2ccc(OC)cc2)cc(OCC)c1OCC (configuration not stated)

Response:
1. 3.20
2. 2.65

====

Target: Endothelin-1 receptor (Homo sapiens, UniProt P25101)
Sequence (P25101 whole entry): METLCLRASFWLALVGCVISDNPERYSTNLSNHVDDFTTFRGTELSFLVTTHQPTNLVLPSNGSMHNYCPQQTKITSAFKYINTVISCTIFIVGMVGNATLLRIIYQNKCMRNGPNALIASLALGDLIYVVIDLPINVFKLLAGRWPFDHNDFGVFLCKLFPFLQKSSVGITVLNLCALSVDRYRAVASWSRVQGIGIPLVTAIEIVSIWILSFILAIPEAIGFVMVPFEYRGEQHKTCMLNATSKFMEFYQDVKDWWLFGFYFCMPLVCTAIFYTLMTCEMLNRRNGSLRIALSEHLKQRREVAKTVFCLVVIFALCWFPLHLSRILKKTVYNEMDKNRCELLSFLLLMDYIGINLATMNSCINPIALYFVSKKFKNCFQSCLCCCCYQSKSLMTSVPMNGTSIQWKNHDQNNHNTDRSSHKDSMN
Test: Binding affinity against human cloned endothelin A receptor expressed in LTK-cells
For each record, write down the corresponding IC50.
Please give the number followed by its unit.

compound | target | value-reported
O=C1OC(O)(c2ccc(OCc3ccccc3)cc2)C(Cc2ccccc2)=C1c1ccc2c(c1)OCO2 (stereo unspecified) | Endothelin-1 receptor (Homo sapiens, UniProt P25101) | 950 nM

Batch request: IC50 for each of the following compounds.
1. COc1ccc(C2(O)OC(=O)C(c3cc(OC)c4c(c3)OCO4)=C2Cc2cc(OC)c(OC)c(OC)c2)cc1 (stereo unspecified)
2. COc1ccc(C2(O)OC(=O)C(c3ccc4c(c3)OCO4)=C2Cc2ccc(OC)c(OC)c2)cc1 (stereo unspecified)
3. COc1ccc(C2OC(=O)C(c3ccc4c(c3)OCO4)=C2Cc2ccccc2)cc1 (stereo unspecified)
4. COc1ccc(C2(O)OC(=O)C(c3ccc4c(c3)OCO4)=C2CC2CCCCCC2)cc1 (stereo unspecified)
5. COc1ccc(C2(O)OC(=O)C(c3ccc4c(c3)OCO4)=C2CC2CCCC2)cc1 (stereo unspecified)

Response:
0.5 nM
1.4 nM
700 nM
35 nM
10 nM

Data origin, for the record: ChEMBL document CHEMBL1129982
